- Assayed system: T1, alpha-synuclein plaque particles (Homo sapiens, UniProt P37840)
- T1 construct: 140 amino acids polypeptide
- Assay: Mass spectroscopy proteomics, semi-quantitative binding affinity of serum proteins (plaqueproteome, Table 2)
- Experimental setup: higher number = stronger affinity
Recorded endpoint: Semi-quantitative analysis of proteins binding to different plaque particles: Synuclein
# respond with the number and nothing more

Reported Semi-quantitative analysis of proteins binding to different plaque particles: Synuclein for Isoform 2 of Ficolin-3 (protein) QEHPSCPGPRELEASKVVLLPSCPGAPGSPGEKGAPGPQGPPGPPGKMGPKGEPGPRNCRELLSQGATLSGWYHLCLPEGRALPVFCDMDTEGGGWLVFQRRQDGSVDFFRSWSSYRAGFGNQESEFWLGNENLHQLTLQGNWELRVELEDFNGNRTFAHYATFRLLGEVDHYQLALGKFSEGTAGDSLSLHSGRPFTTYDADHDSSNSNCAVIVHGAWWYASCYRSNLNGRYAVSEAAAHKYGIDWASGRGVGHPYRRVRMMLR : what is it?
1

Reported Semi-quantitative analysis of proteins binding to different plaque particles: Synuclein for Platelet factor 4 variant (protein) FARAEAEEDGDLQCLCVKTTSQVRPRHITSLEVIKAGPHCPTAQLIATLKNGRKICLDLQALLYKKIIKEHLES : what is it?
1

Reported Semi-quantitative analysis of proteins binding to different plaque particles: Synuclein for Ig kappa chain V-I region BAN (protein) DIQMTQSPSSLSASVGDRVTITCRASQGISNYLAWFQQKPGKAPKSLIYAASSLQSGVPSKFSGSGSGTDFTLTISSLQPEDFATYYCQQYNSYP : what is it?
1

Reported Semi-quantitative analysis of proteins binding to different plaque particles: Synuclein for Apolipoprotein A-IV (protein) EVSADQVATVMWDYFSQLSNNAKEAVEHLQKSELTQQLNALFQDKLGEVNTYAGDLQKKLVPFATELHERLAKDSEKLKEEIGKELEELRARLLPHANEVSQKIGDNLRELQQRLEPYADQLRTQVSTQAEQLRRQLTPYAQRMERVLRENADSLQASLRPHADELKAKIDQNVEELKGRLTPYADEFKVKIDQTVEELRRSLAPYAQDTQEKLNHQLEGLTFQMKKNAEELKARISASAEELRQRLAPLAEDVRGNLRGNTEGLQKSLAELGGHLDQQVEEFRRRVEPYGENFNKALVQQMEQLRQKLGPHAGDVEGHLSFLEKDLRDKVNSFFSTFKEKESQDKTLSLPELEQQQEQQQEQQQEQVQMLAPLES : what is it?
7

Reported Semi-quantitative analysis of proteins binding to different plaque particles: Synuclein for Selenoprotein P (protein) ESQDQSSLCKQPPAWSIRDQDPMLNSNGSVTVVALLQASUYLCILQASKLEDLRVKLKKEGYSNISYIVVNHQGISSRLKYTHLKNKVSEHIPVYQQEENQTDVWTLLNGSKDDFLIYDRCGRLVYHLGLPFSFLTFPYVEEAIKIAYCEKKCGNCSLTTLKDEDFCKRVSLATVDKTVETPSPHYHHEHHHNHGHQHLGSSELSENQQPGAPNAPTHPAPPGLHHHHKHKGQHRQGHPENRDMPASEDLQDLQKKLCRKRCINQLLCKLPTDSELAPRSUCCHCRHLIFEKTGSAITUQCKENLPSLCSUQGLRAEENITESCQURLPPAAUQISQQLIPTEASASURUKNQAKKUEUPSN : what is it?
1
